Tested on: SK-MEL-28 melanoma
Test: NCI-60 one-dose screen, 48 h
Conditions: 10 µM unless noted
Method: Growth inhibition of the SK-MEL-28 human tumor cell line is measured as a screen for anti-cancer activity. Cells are grown in 96 well plates and exposed to the test compound for 48 hours. Compounds are tested at a single concentration, which is 10^-5 M for most compounds. The reported endpoint is percent growth (GI% or GIPRCNT), where numbers from 0 - 100% represent growth inhibition, and numbers from -100% - 0 represent cell death. For example, a value of 40 represents 60% growth inhibition. […]
About 83,000 compounds went through this panel and 20% of them were active in at least one assay; those are over-represented in the sample as a whole. Active and inactive are the calls of the source. How the source made its calls: active means growth percent below 10; inactive means the rest.
Returns: one label drawn from true (1) = active, false (0) = inactive

# Compound, Group
measured = [
    ("O=S(c1ccccc1)c1ccc2nnnn2n1 (stereo unspecified)", "false (0)"),
    ("CCCC(=O)Oc1ccc(/C(=C(\\C)c2ccc(Cl)cc2)c2ccc(OCCN(CC)CC)cc2)cc1", "true (1)"),
]

Can you look up the reported call for Fc1ccc(/C=N/n2c(-c3cc(Cl)cc(Cl)c3Cl)nn(CNc3ccc(Cl)nn3)c2=S)cc1 for me?
false (0)

Can you look up the reported call for CCCCn1c(-c2cccc(OC)c2)nc2cc(OC)c(OC)cc2c1=O for me?
false (0)

Can you look up the reported call for COc1ccc(-c2nn(-c3ccc(NC(=O)c4cc(Cl)cc(Cl)c4)cc3)cc2-c2ccncc2)cc1Cl for me?
false (0)

Can you look up the reported call for O=C(N/N=C/c1ccccc1O)c1ccccc1O for me?
false (0)

Can you look up the reported call for COC(=O)Nc1nc2ccc(Sc3ccccc3)cc2[nH]1 for me?
false (0)

Can you look up the reported call for O=C(Nc1ccc(-n2ccc3c(NC(=O)c4ccccc4)nccc32)cc1)Nc1ccc(Cl)c(Cl)c1 for me?
false (0)

Can you look up the reported call for CC(=O)O[C@@H]1[C@@H](OC(C)=O)[C@H](OC(C)=O)CO[C@H]1Nc1cccc2ccccc12 for me?
false (0)

Can you look up the reported call for COc1cc(/C=C\c2cc(/C=C\c3ccc(O)c(OC)c3)n(C(=O)CNc3ccccc3OC)n2)ccc1O for me?
false (0)

Can you look up the reported call for Cc1nssc1=S for me?
false (0)

Can you look up the reported call for Cc1cc(O[C@@H]2O[C@@H](C)[C@H](O)[C@@H](O)[C@H]2O)c2c3c(c(O[C@@H]4O[C@@H](C)[C@H](O)[C@@H](O)[C@H]4O)cc2c1)C(=O)c1c(O)cccc1C3=O for me?
false (0)

Can you look up the reported call for Nc1nc2ccc(CNc3ccc(C(=O)NC(CC(=O)O)C(=O)O)cc3)cc2c(=O)[nH]1 (stereo unspecified) for me?
false (0)

Can you look up the reported call for OCCOCC(F)(F)F for me?
false (0)

Can you look up the reported call for COc1cc(Br)c(-c2nc(-c3ccccc3)c(-c3ccccc3)n2Cc2ccccc2)cc1OC for me?
false (0)

Can you look up the reported call for COc1ccc(-c2nn(-c3ccc(NC(=O)Nc4ccc(Cl)c(C(F)(F)F)c4)cc3)cc2-c2ccncc2)cc1Cl for me?
false (0)
